- MEASURED_ON: human glucagon-like peptide-1 receptor (GLP-1R) (Homo sapiens)
- Construct: host or cells: CHO chAMPion cells
- Sequence (P43220 24-463): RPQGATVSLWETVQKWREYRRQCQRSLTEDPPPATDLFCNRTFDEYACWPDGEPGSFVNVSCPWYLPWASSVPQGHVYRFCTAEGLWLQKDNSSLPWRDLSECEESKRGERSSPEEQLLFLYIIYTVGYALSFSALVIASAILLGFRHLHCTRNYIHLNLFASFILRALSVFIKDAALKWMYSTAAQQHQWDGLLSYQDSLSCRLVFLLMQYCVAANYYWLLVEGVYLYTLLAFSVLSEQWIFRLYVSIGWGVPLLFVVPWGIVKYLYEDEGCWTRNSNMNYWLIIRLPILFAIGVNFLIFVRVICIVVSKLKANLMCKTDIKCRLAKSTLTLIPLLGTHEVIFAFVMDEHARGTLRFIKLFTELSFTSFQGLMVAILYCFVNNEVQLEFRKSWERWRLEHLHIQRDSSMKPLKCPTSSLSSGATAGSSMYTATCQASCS
- TEST: Human GLP-1 receptor cell-based assay (flash luminescence, Target Activation phase)
- MEASUREMENT_CONTEXT: CHO chAMPion cells stably co-expressing human GLP-1R, Photina and cAMP-activated calcium channel; agonist activity; normalization by forskolin at 10 μM; ^a) values from single experiment; read-out: EC50 (μM) Target Activation (TA)
Where a SMILES comes first, the peptide text is derived from it. [ ]: non-standard residue; d: D form. Aic = NC1(C(=O)O)Cc2ccccc2C1; Ac5c = NC1(C(=O)O)CCCC1; Aib = CC(C)(N)C(=O)O
PARAMETER: EC50 (µM)
Write the number in µM without appending the unit.

Reference set, count: 2
COMPOUND: CC(C)C[C@@H]1NC(=O)[C@H](CCC(=O)O)NC(=O)[C@H](Cc2ccccc2)NC(=O)C2(CCCC2)NC(=O)[C@H]2CCCN2C(=O)[C@H](Cc2ccccc2)NC(=O)[C@H](CCC(=O)O)NC(=O)[C@H](Cc2c[nH]c3ccccc23)NC(=O)[C@H](C)NC(=O)[C@H](Cc2ccc(O)cc2)NC1=O [compound 48] (cyclo(FELYAWEF[dP][Ac5c]))
OUTPUT_UNIT: µM
MEASURED_RESULT: 0.9
--
COMPOUND: CC(C)C[C@@H]1NC(=O)[C@H](CC(C)C)NC(=O)[C@H](CCC(=O)O)NC(=O)[C@H](Cc2ccccc2)NC(=O)C2(Cc3ccccc3C2)NC(=O)[C@H]2CCCN2C(=O)[C@H](Cc2ccccc2)NC(=O)[C@H](CCC(=O)O)NC(=O)[C@H](Cc2c[nH]c3ccccc23)NC(=O)[C@H](C)NC1=O [compound 52] (cyclo(FELLAWEF[dP][Aic]))
OUTPUT_UNIT: µM
MEASURED_RESULT: 0.82

GET /values?readout=EC50&system=human glucagon-like peptide-1 receptor (GLP-1R) (Homo sapiens)&item= CC(C)C[C@@H]1NC(=O)[C@H](Cc2c[nH]cn2)NC(=O)[C@H](Cc2ccccc2)NC(=O)C(C)(C)NC(=O)[C@H]2CCCN2C(=O)[C@H](Cc2ccc(O)cc2)NC(=O)[C@H](CCC(N)=O)NC(=O)[C@H](Cc2c[nH]c3ccccc23)NC(=O)[C@H](C)NC(=O)[C@H](Cc2ccc(O)cc2)NC1=O [compound 51] (cyclo(FHLYAWQY[dP][Aib]))
3.3
